Recorded values, source ChEMBL document CHEMBL3822420.

Tested on: Staphylococcus aureus
Assay: Antibacterial activity against methicillin-sensitive Staphylococcus aureus 14-1
Assay type: functional
readout type: MIC (µg/mL)

{"line notation": "CCCC[C@H](CN(O)C=O)C(=O)N1CCC[C@H]1C(=O)Nc1ccc(F)c[n+]1[O-]", "assayed target": "Staphylococcus aureus", "reported": 0.5}
{"line notation": "CCCC[C@H](CN(O)C=O)C(=O)N1CC2(CC2)C[C@H]1c1nc(-c2cccnc2)no1", "assayed target": "Staphylococcus aureus", "reported": 0.5}
{"line notation": "CCCC[C@H](CN(O)C=O)C(=O)N1CC2(CC2)C[C@H]1C(=O)Nc1ncccc1F", "assayed target": "Staphylococcus aureus", "reported": 0.5}
